assayTarget: CDK2 (Homo sapiens, UniProt P24941)
Construct: host or cells: HEK293
assayComment: CDK2 HIBIT PQ (protein quantification), degradation
Format: cell-based
appliedConditions: PQ = Protein Quantification
readoutName: DC50 (nM)
Just the number please, in nM, no unit attached.

Q. For the molecule shown here, CC(C)Oc1c(-c2cn[nH]c2)ncn2nc(Nc3ccc(S(=O)(=O)c4cccc(C[C@H]5C[C@H](c6ccc7c(c6)CN([C@@H]6CCC(=O)NC6=O)C7=O)C5)c4)cc3F)nc12 (stereo in doubt) , give the reported DC50.
A. 3.9

Q. Give its DC50 value. Item: CC(C)Oc1c(-c2cn[nH]c2)ncn2nc(N[C@H]3CCN(S(=O)(=O)c4cccc(CN5CCC(c6ccc7c(N8CCC(=O)NC8=O)nn(C)c7c6)CC5)c4)C[C@H]3C)nc12
A. 1.67

Q. State the recorded DC50 for this entry: CC(C)Oc1c(-c2cn[nH]c2)ncn2nc(Nc3ccc(S(=O)(=O)N(C)CCCN4CC5CC4CN5c4ccc5c(c4)n(C)c(=O)n5C4CCC(=O)NC4=O)cc3F)nc12 (stereo not shown)
A. 0.5

Q. Quick one: DC50 of CC(C)Oc1c(-c2cn[nH]c2)ncn2nc(Nc3ccc(S(=O)(=O)c4cccc(C[C@H]5C[C@@H](c6ccc7c(c6)CN(C6CCC(=O)NC6=O)C7=O)C5)c4)cc3F)nc12 (stereo partly shown) ?
A. 8

Q. Fill blank: measured DC50 of the molecule CC(C)Oc1c(-c2cn[nH]c2)ncn2nc(Nc3ccc(S(=O)(=O)c4cccc(C(C)N5CCC(c6ccc7c(N8CCC(=O)NC8=O)nn(C)c7c6)CC5)c4)cc3F)nc12 (racemic) [Compound 85] is ____.
A. 1.5

Q. What value of measured DC50 is listed for CC(C)Oc1c(-c2cn[nH]c2)ncn2nc(Nc3ccc(S(=O)(=O)N4CCCC(CN5CCC(c6ccc7c(N8CCC(=O)NC8=O)nn(C)c7c6)C(C)C5)C4)cc3F)nc12 (stereo not shown) ?
A. 1.7

Q. Quick one: DC50 for CC(C)Oc1c(-c2cn[nH]c2)ncn2nc(Nc3ccc(S(=O)(=O)N(C)CCCN4CCC(c5ccc6c(c5)n(C)c(=O)n6C5CCC(=O)NC5=O)CC4)cc3)nc12 (racemic) ?
A. 0.1

Q. Fill blank: measured DC50 of the molecule CC(C)Oc1c(-c2cn[nH]c2)ncn2nc(Nc3ccc(S(=O)(=O)c4cccc(CC5CC(c6ccc7c(N8CCC(=O)NC8=O)nn(C)c7c6)C5)c4)cc3F)nc12 (stereo not shown) is ____.
A. 19

Q. Fill in: DC50 of CC(C)Oc1c(-c2cn[nH]c2)ncn2nc(Nc3ccc(S(=O)(=O)c4cccc(CN5CCN(c6ccc7c(N8CCC(=O)NC8=O)nn(C)c7c6)CC5C(C)C)c4)cc3F)nc12 (single isomer, unassigned) [Compound 107] is ___
A. 12

Q. Fill blank: measured DC50 of the molecule CC(C)Oc1c(-c2cn[nH]c2)ncn2nc(Nc3ccc(S(=O)(=O)N(C)CCCN4CCC(c5ccc6c(N7CCC(=O)NC7=O)nn(C)c6c5)CC4)cc3F)nc12 is ____.
A. 0.35

* * *

assayTarget: CCNE1 (Homo sapiens, UniProt P24864+P24941)
Construct: host or cells: HEK293
assayComment: CCNE1 HIBIT PQ (protein quantification), degradation
Type: cell-based
appliedConditions: Max = Maximum
readoutName: CCNE1 HIBIT PQ Max (%)
Write down the value, and be sure its unit follows.

Q. Using the record for CC(C)Oc1c(-c2cn[nH]c2)ncn2nc(Nc3ccc(S(=O)(=O)N4CC5(CCCN(CC6CCN(c7cccc8c7n(C)c(=O)n8C7CCC(=O)NC7=O)CC6)C5)C4)cc3F)nc12 (racemic) , report its CCNE1 HIBIT PQ Max (%).
A. 40%

Q. CCNE1 HIBIT PQ Max (%) for CC(C)Oc1c(-c2cn[nH]c2)ncn2nc(Nc3ccc(S(=O)(=O)N(C)CCCN4CCC(c5ccc6c(N7CCC(=O)NC7=O)nn(C)c6c5)CC4)cc3F)nc12 ?
A. 93%

Q. Can you look up the measured CCNE1 HIBIT PQ Max (%) of CC(C)Oc1c(-c2cn[nH]c2)ncn2nc(Nc3ccc(S(=O)(=O)N(C)CCCN4CC5CC4CN5c4ccc5c(c4)n(C)c(=O)n5C4CCC(=O)NC4=O)cc3F)nc12 (stereo not shown) for me?
A. 18%

Q. // returns reported CCNE1 HIBIT PQ Max (%) for input CC(C)Oc1c(-c2cn[nH]c2)ncn2nc(Nc3ccc(S(=O)(=O)c4cccc(CN5CCN(c6ccc7c(N8CCC(=O)NC8=O)nn(C)c7c6)CC5C(C)C)c4)cc3F)nc12 (single isomer, unassigned) [Compound 107]
A. 71%

Q. Fill in: CCNE1 HIBIT PQ Max (%) of CC(C)Oc1c(-c2cn[nH]c2)ncn2nc(Nc3ccc(S(=O)(=O)c4cccc(CN5C6CCC5CN(c5ccc7c(N8CCC(=O)NC8=O)nn(C)c7c5)C6)c4)cc3F)nc12 is ___
A. 48%

Q. Which measured CCNE1 HIBIT PQ Max (%) value corresponds to CC(C)Oc1c(-c2cn[nH]c2)ncn2nc(Nc3ccc(S(=O)(=O)N4CCCC(CN5CCC(c6ccc7c(c6)n(C)c(=O)n7C6CCC(=O)NC6=O)CC5)C4)cc3F)nc12 (stereo not shown) ?
A. 64%

Q. Quick check: CCNE1 HIBIT PQ Max (%) of CC(C)Oc1c(-c2cn[nH]c2)ncn2nc(Nc3ccc(S(=O)(=O)c4cccc(CN5CCN(c6ccc7c(N8CCC(=O)NC8=O)nn(C)c7c6)CC5C(C)C)c4)cc3F)nc12 (racemic) [Compound 42] ?
A. 67%

Q. What value of measured CCNE1 HIBIT PQ Max (%) is listed for CC(C)Oc1c(-c2cn[nH]c2)ncn2nc(Nc3ccc(S(=O)(=O)c4cccc(C(C)N5CCC(c6ccc7c(N8CCC(=O)NC8=O)nn(C)c7c6)CC5)c4)cc3F)nc12 (single isomer, unassigned) [Compound 100] ?
A. 80%

Q. Bench note: what CCNE1 HIBIT PQ Max (%) did CC(C)Oc1c(-c2cn[nH]c2)ncn2nc(Nc3ccc(S(=O)(=O)N4CCC(CN5CCC(c6ccc7c(c6)n(C)c(=O)n7C6CCC(=O)NC6=O)CC5)C4)cc3F)nc12 (stereo not shown) show?
A. 35%

Q. // query CCNE1 HIBIT PQ Max (%) value for entry CC(C)Oc1c(-c2cn[nH]c2)ncn2nc(Nc3ccc(S(=O)(=O)N4CCC5(CCN(CC6CN(c7cccc8c7n(C)c(=O)n8C7CCC(=O)NC7=O)C6)C5)C4)cc3F)nc12 (stereo not shown)
A. 28%

* * *

assayTarget: CDK2 (Homo sapiens, UniProt P24941)
Construct: host or cells: HEK293
assayComment: CDK2 HIBIT PQ (protein quantification), degradation
Type: cell-based
appliedConditions: PQ = Protein Quantification
readoutName: DC50 (nM)
Just the number in nM, nothing appended.

Q. Return reported DC50; argument: CC(C)Oc1c(-c2cn[nH]c2)ncn2nc(Nc3ccc(S(=O)(=O)N(C)CCCN4CCN(c5ccc6c(c5)n(C)c(=O)n6C5CCC(=O)NC5=O)CC4)cc3F)nc12 (stereo not shown)
A. 0.1

Q. Record request: DC50 value, item CC(C)Oc1c(-c2cn[nH]c2)ncn2nc(Nc3ccc(S(=O)(=O)c4cccc(N5CCC6C5CN6c5ccc6c(c5)CN(C5CCC(=O)NC5=O)C6=O)c4)cc3F)nc12 (stereo not shown)
A. 5.6

Q. Which DC50 value is on record for CC(C)Oc1c(-c2cn[nH]c2)ncn2nc(Nc3ccc(S(=O)(=O)c4cccc(CN5CCC(c6ccc7c(N8CCC(=O)NC8=O)nn(C)c7c6)CC5)c4)cc3F)nc12 ?
A. 1.58

Q. Please report the recorded DC50 for CC(C)Oc1c(-c2cn[nH]c2)ncn2nc(Nc3ccc(S(=O)(=O)N4CCC[C@@H](CN5CC[C@H](c6ccc7c(N8CCC(=O)NC8=O)nn(C)c7c6)CC5(C)C)C4)cc3F)nc12 (single isomer, unassigned) .
A. 1

Q. Report DC50 for CC(C)Oc1c(-c2cn[nH]c2)ncn2nc(NC3CCN(S(=O)(=O)c4cccc(CN5CC(c6ccc7c(c6)CN(C6CCC(=O)NC6=O)C7=O)C5)c4)CC3)nc12 (racemic) please.
A. 4.14

Q. Entry CC(C)Oc1c(-c2cn[nH]c2)ncn2nc(Nc3ccc(S(=O)(=O)c4cccc(CN5CCN(c6ccc7c(N8CCC(=O)NC8=O)nn(C)c7c6)C6CC65)c4)cc3F)nc12 (stereo not shown) : reported DC50 = ?
A. 3.5

Q. Any idea what DC50 was measured for CC(C)Oc1c(-c2cn[nH]c2)ncn2nc(Nc3c(F)cc(S(=O)(=O)N(C)CCCN4CCC(c5ccc6c(c5)n(C)c(=O)n6C5CCC(=O)NC5=O)CC4)cc3F)nc12 (racemic) ?
A. 0.1

Q. // query DC50 value for entry CC(C)Oc1c(-c2cn[nH]c2)ncn2nc(Nc3ccc(S(=O)(=O)N4CCC(CN5CCC(c6cccc7c6n(C)c(=O)n7C6CCC(=O)NC6=O)CC5)CC4)cc3F)nc12 (racemic)
A. 0.24

Q. Entry under review: CC(C)Oc1c(-c2cn[nH]c2)ncn2nc(Nc3ccc(S(=O)(=O)c4cccc(CN5CC(c6ccc7c(N8CCC(=O)NC8=O)nn(C)c7c6)C5)c4)cc3F)nc12 . Reported DC50?
A. 2

Q. What measured DC50 goes with CC(C)Oc1c(-c2cn[nH]c2)ncn2nc(Nc3ccc(S(=O)(=O)c4cccc(CN5CCN(c6ccc7c(N8CCC(=O)NC8=O)nn(C)c7c6)CC5)c4)cc3F)nc12 ?
A. 2.3

Numbers sourced from patent US20260062426A1.
